Each entry below carries its recorded Intrinsic activity.
Study target: Histamine H2 receptor (Cavia porcellus) (UniProt P47747)
Sequence (P47747 whole entry): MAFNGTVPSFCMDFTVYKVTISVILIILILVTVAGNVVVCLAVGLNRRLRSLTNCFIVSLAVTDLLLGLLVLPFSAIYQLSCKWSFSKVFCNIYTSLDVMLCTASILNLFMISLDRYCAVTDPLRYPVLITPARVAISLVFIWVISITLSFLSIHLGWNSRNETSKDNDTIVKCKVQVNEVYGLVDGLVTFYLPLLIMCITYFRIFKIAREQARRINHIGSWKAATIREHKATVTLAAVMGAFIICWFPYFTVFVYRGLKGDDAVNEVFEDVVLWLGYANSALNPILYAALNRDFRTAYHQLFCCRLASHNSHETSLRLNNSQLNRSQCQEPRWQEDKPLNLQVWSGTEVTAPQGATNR
Assay name: Intrinsic activity (as a measure of agonism) on electrically stimulated papillary muscle of guinea pig
Type: functional, tissue-based
Settings: Muscle tissue
Output spec: single numeric token, no unit.

Compound	Reported value
COc1ccc(C(CC/N=C(\N)NCCCc2c[nH]cn2)c2ccccn2)cc1 (stereo not given)	0.5
N=C(NCCCc1c[nH]cn1)NCCC(c1ccccc1)c1ccc(F)cc1 (stereo not given)	0.7
N=C(NCCCc1c[nH]cn1)NCCC(c1cccc(C(F)(F)F)c1)c1ccccn1 (stereo not given)	0.7
N=C(NCCCc1c[nH]cn1)NCCC(c1ccc(Cl)c(Cl)c1)c1ccccn1 (stereo not given)	0.8
N=C(NCCCc1c[nH]cn1)NCCC(c1ccc(F)cc1)c1ccccn1 (stereo not given)	0.8

Query: Give recorded Intrinsic activity. N=C(NCCCc1c[nH]cn1)NCCC(c1ccccc1)c1ccc(Cl)c(Cl)c1 (stereo not given)
Response: 0.6

Query: Give recorded Intrinsic activity. N=C(NCCCc1c[nH]cn1)NCCC(c1ccc(F)cc1)c1cccnc1 (stereo not given)
Response: 0.8

Query: Give recorded Intrinsic activity. N=C(NCCCc1c[nH]cn1)NCCC(c1cccc(F)c1)c1ccccn1 (stereo not given)
Response: 0.5

Query: Give recorded Intrinsic activity. N=C(NCCCc1c[nH]cn1)NCCC(c1ccc(Cl)cc1)c1ccccn1 (stereo not given)
Response: 0.8

Query: Give recorded Intrinsic activity. N=C(NCCCc1c[nH]cn1)NCCC(c1cccc(Cl)c1)c1ccccn1 (stereo not given)
Response: 0.6
